Values from ChEMBL document CHEMBL4316641

Experiment: Selectivity index, ratio of CC50 for cytotoxicity against human MT4 cells assessed as reduction in cell viability by MTT assay to EC50 for antiviral activity against HIV infected in human MT4 cells assessed as inhibition of virus-induced cytopathogenicity by MTT assay
Format: toxicity, cell-based
Details: read-out: Ratio CC50/EC50
parameter measured: selectivity ratio
# respond with the number and nothing more

response.value for CC(NC(=O)c1ccccc1)c1nn(-c2ccc(C(N)=O)cc2)c2c1C(=O)CC(C)(C)C2 (racemic) (field: selectivity ratio) = 68
